Property: Log P; scope: individual compounds
- EXPERIMENT SUMMARY: Lipophilicity: octanol-water partition coefficient, shake-flask method

COMPOUND | Log P
COC(=O)c1ccc2[c](c1)[Ir-3]13([c]4cc(C(=O)OC)ccc4-c4cccc[n+]41)([c]1n(CCCNC(=O)c4ccccc4SC/C=C(\C)CC/C=C(\C)CCC=C(C)C)cc[n+]1-c1cccc[n+]13)[n+]1ccccc1-2.F[P-](F)(F)(F)(F)F [II-c] | 1.08
COC(=O)c1ccc2[n+](c1)[Ir-3]13([c]4ccccc4-2)([c]2ccccc2-c2ccc(C(=O)OC)c[n+]21)[c]1n(CCCNC(=O)CCCC[C@@H]2SC[C@@H]4NC(=O)N[C@@H]42)cc[n+]1-c1cccc[n+]13.F[P-](F)(F)(F)(F)F [I-e] | 0.25
COC(=O)c1cccc2[c]1[Ir-3]13([c]4c(C(=O)OC)cccc4-c4cccc[n+]41)([c]1n(CCCNC(=O)c4ccccc4SC/C=C(\C)CC/C=C(\C)CCC=C(C)C)cc[n+]1-c1cccc[n+]13)[n+]1ccccc1-2.F[P-](F)(F)(F)(F)F [II-d] | 1.40
F[P-](F)(F)(F)(F)F.O=C(O)CC[C@H](NC(=O)N[C@@H](CCCCNC(=O)CCn1cc[n+]2[c]1[Ir-3]13([c]4c(sc5ccccc45)-c4cccc[n+]41)([c]1c(sc4ccccc14)-c1cccc[n+]13)[n+]1ccccc1-2)C(=O)O)C(=O)O [III-j] | −0.38
F[P-](F)(F)(F)(F)F.O=C(CCCC[C@@H]1SC[C@@H]2NC(=O)N[C@@H]21)NCCCn1cc[n+]2[c]1[Ir-3]13([c]4cccc5ccc6ccc[n+]1c6c45)([c]1cccc4ccc5ccc[n+]3c5c14)[n+]1ccccc1-2 [I-i] | 0.60
F[P-](F)(F)(F)(F)F.O=C(NCCCn1cc[n+]2[c]1[Ir-3]13([c]4ccccc4-c4c5ccccc5cc[n+]41)([c]1ccccc1-c1c4ccccc4cc[n+]13)[n+]1ccccc1-2)[c-]1cccc1.[Fe+2].c1cc[cH-]c1 [IV-h] | 0.81
CC(C)=CCC/C(C)=C/CC/C(C)=C/CSc1ccccc1C(=O)NCCCn1cc[n+]2[c]1[Ir-3]13([c]4ccccc4-c4cccc[n+]41)([c]1ccccc1-c1cccc[n+]13)[n+]1ccccc1-2.F[P-](F)(F)(F)(F)F [II-a] | 1.70
F[P-](F)(F)(F)(F)F.O=C(O)CC[C@H](NC(=O)N[C@@H](CCCCNC(=O)CCn1cc[n+]2[c]1[Ir-3]13([c]4ccccc4-c4ccc5ccccc5[n+]41)([c]1ccccc1-c1ccc4ccccc4[n+]13)[n+]1ccccc1-2)C(=O)O)C(=O)O [III-g] | 0.33
CC(C)=CCC/C(C)=C/CC/C(C)=C/CSc1ccccc1C(=O)NCCCn1cc[n+]2[c]1[Ir-3]13([c]4ccccc4-c4ccc5ccccc5[n+]41)([c]1ccccc1-c1ccc4ccccc4[n+]13)[n+]1ccccc1-2.F[P-](F)(F)(F)(F)F [II-g] | 1.95
CC(C)=CCC/C(C)=C/CC/C(C)=C/CSc1ccccc1C(=O)NCCCn1cc[n+]2[c]1[Ir-3]13([c]4cc(C)ccc4-c4cccc[n+]41)([c]1cc(C)ccc1-c1cccc[n+]13)[n+]1ccccc1-2.F[P-](F)(F)(F)(F)F [II-b] | 1.68
COC(=O)c1ccc2[n+](c1)[Ir-3]13([c]4ccccc4-2)([c]2ccccc2-c2ccc(C(=O)OC)c[n+]21)[c]1n(CCCNC(=O)[c-]2cccc2)cc[n+]1-c1cccc[n+]13.F[P-](F)(F)(F)(F)F.[Fe+2].c1cc[cH-]c1 [IV-e] | 1.37
F[P-](F)(F)(F)(F)F.O=C(NCCCn1cc[n+]2[c]1[Ir-3]13([c]4c(sc5ccccc45)-c4cccc[n+]41)([c]1c(sc4ccccc14)-c1cccc[n+]13)[n+]1ccccc1-2)[c-]1cccc1.[Fe+2].c1cc[cH-]c1 [IV-j] | 1.07
F[P-](F)(F)(F)(F)F.O=C(O)CC[C@H](NC(=O)N[C@@H](CCCCNC(=O)CCn1cc[n+]2[c]1[Ir-3]13([c]4cccc5ccc6ccc[n+]1c6c45)([c]1cccc4ccc5ccc[n+]3c5c14)[n+]1ccccc1-2)C(=O)O)C(=O)O [III-i] | 0.60
COC(=O)c1ccc2[c](c1)[Ir-3]13([c]4cc(C(=O)OC)ccc4-c4cccc[n+]41)([c]1n(CCCNC(=O)[c-]4cccc4)cc[n+]1-c1cccc[n+]13)[n+]1ccccc1-2.F[P-](F)(F)(F)(F)F.[Fe+2].c1cc[cH-]c1 [IV-c] | 0.72
F[P-](F)(F)(F)(F)F.O=C(CCCC[C@@H]1SC[C@@H]2NC(=O)N[C@@H]21)NCCCn1cc[n+]2[c]1[Ir-3]13([c]4ccccc4-c4ccc5ccccc5[n+]41)([c]1ccccc1-c1ccc4ccccc4[n+]13)[n+]1ccccc1-2 [I-g] | 1.26
F[P-](F)(F)(F)(F)F.O=C(NCCCn1cc[n+]2[c]1[Ir-3]13([c]4cc(F)cc(F)c4-c4cccc[n+]41)([c]1cc(F)cc(F)c1-c1cccc[n+]13)[n+]1ccccc1-2)[c-]1cccc1.[Fe+2].c1cc[cH-]c1 [IV-l] | 1.14

---

Property: Photosensitizing index (PI); scope: individual compounds
- System: DU-145 prostate cancer cells (PSMA-negative)
- EXPERIMENT SUMMARY: Cell viability assay (MTT), dark and blue light
- Type: cell-based, Human
- TEST CONDITIONS: DU145, dark vs blue light
PROPERTY LABEL: Photosensitizing index (PI)

COMPOUND STRUCTURE STRING | NUMERIC READOUT
F[P-](F)(F)(F)(F)F.O=C(O)CC[C@H](NC(=O)N[C@@H](CCCCNC(=O)CCn1cc[n+]2[c]1[Ir-3]13([c]4ccccc4-c4c5ccccc5cc[n+]41)([c]1ccccc1-c1c4ccccc4cc[n+]13)[n+]1ccccc1-2)C(=O)O)C(=O)O | 18.5
F[P-](F)(F)(F)(F)F.O=C(O)CC[C@H](NC(=O)N[C@@H](CCCCNC(=O)CCn1cc[n+]2[c]1[Ir-3]13([c]4c(sc5ccccc45)-c4cccc[n+]41)([c]1c(sc4ccccc14)-c1cccc[n+]13)[n+]1ccccc1-2)C(=O)O)C(=O)O | 151.9
F[P-](F)(F)(F)(F)F.O=C(O)CC[C@H](NC(=O)N[C@@H](CCCCNC(=O)CCn1cc[n+]2[c]1[Ir-3]13([c]4ccccc4-c4sc5ccccc5[n+]41)([c]1ccccc1-c1sc4ccccc4[n+]13)[n+]1ccccc1-2)C(=O)O)C(=O)O | 7.5
F[P-](F)(F)(F)(F)F.O=C(O)CC[C@H](NC(=O)N[C@@H](CCCCNC(=O)CCn1cc[n+]2[c]1[Ir-3]13([c]4cccc5ccc6ccc[n+]1c6c45)([c]1cccc4ccc5ccc[n+]3c5c14)[n+]1ccccc1-2)C(=O)O)C(=O)O | 5.6

---

Property: GI50; scope: individual compounds
- Test system: MGHU3 bladder cancer cells
- EXPERIMENT SUMMARY: Cell viability assay (MTT), dark and blue light
- Assay type: cell-based, Human
- TEST CONDITIONS: in the dark, 72 h; read-out: GI50 MGHU3 Dark
PROPERTY LABEL: GI50 (µM)

COMPOUND | PREFIX OPERATOR | NUMERIC READOUT
F[P-](F)(F)(F)(F)F.O=C(CCCC[C@@H]1SC[C@@H]2NC(=O)N[C@@H]21)NCCCn1cc[n+]2[c]1[Ir-3]13([c]4ccccc4-c4ccc5ccccc5[n+]41)([c]1ccccc1-c1ccc4ccccc4[n+]13)[n+]1ccccc1-2 [I-g] | = | 25.4
F[P-](F)(F)(F)(F)F.O=C(CCCC[C@@H]1SC[C@@H]2NC(=O)N[C@@H]21)NCCCn1cc[n+]2[c]1[Ir-3]13([c]4ccccc4-c4c5ccccc5cc[n+]41)([c]1ccccc1-c1c4ccccc4cc[n+]13)[n+]1ccccc1-2 [I-h] | = | 26.7
COC(=O)c1ccc2[n+](c1)[Ir-3]13([c]4ccccc4-2)([c]2ccccc2-c2ccc(C(=O)OC)c[n+]21)[c]1n(CCCNC(=O)CCCC[C@@H]2SC[C@@H]4NC(=O)N[C@@H]42)cc[n+]1-c1cccc[n+]13.F[P-](F)(F)(F)(F)F [I-e] | > | 100
F[P-](F)(F)(F)(F)F.O=C(CCCC[C@@H]1SC[C@@H]2NC(=O)N[C@@H]21)NCCCn1cc[n+]2[c]1[Ir-3]13([c]4ccccc4-c4sc5ccccc5[n+]41)([c]1ccccc1-c1sc4ccccc4[n+]13)[n+]1ccccc1-2 [I-k] | = | 46.1

---

Property: Log P; scope: individual molecules
- EXPERIMENT SUMMARY: Lipophilicity: octanol-water partition coefficient, shake-flask method
- TEST CONDITIONS: n-octanol/water, shake-flask, mean of at least three determinations
PROPERTY LABEL: Log P

COMPOUND STRUCTURE STRING | NUMERIC READOUT
Cc1ccc2[c](c1)[Ir-3]13([c]4cc(C)ccc4-c4cccc[n+]41)([c]1n(CCC(=O)NCCCC[C@H](NC(=O)N[C@@H](CCC(=O)O)C(=O)O)C(=O)O)cc[n+]1-c1cccc[n+]13)[n+]1ccccc1-2.F[P-](F)(F)(F)(F)F | −0.14
COC(=O)c1cccc2[c]1[Ir-3]13([c]4c(C(=O)OC)cccc4-c4cccc[n+]41)([c]1n(CCC(=O)NCCCC[C@H](NC(=O)N[C@@H](CCC(=O)O)C(=O)O)C(=O)O)cc[n+]1-c1cccc[n+]13)[n+]1ccccc1-2.F[P-](F)(F)(F)(F)F | −0.52
F[P-](F)(F)(F)(F)F.O=C(NCCCn1cc[n+]2[c]1[Ir-3]13([c]4ccccc4-c4sc5ccccc5[n+]41)([c]1ccccc1-c1sc4ccccc4[n+]13)[n+]1ccccc1-2)[c-]1cccc1.[Fe+2].c1cc[cH-]c1 | 0.74
F[P-](F)(F)(F)(F)F.O=C(NCCCn1cc[n+]2[c]1[Ir-3]13([c]4ccccc4-c4cccc[n+]41)([c]1ccccc1-c1cccc[n+]13)[n+]1ccccc1-2)[c-]1cccc1.[Fe+2].c1cc[cH-]c1 | 0.61
